Listed next: entries and their corresponding Bliss excess.
# Test system: HCC-44 (Lung Adenocarcinoma)
# ASSAY_DETAILS: Bliss excess, mean over the matrix (fraction); higher = more synergy

MOLECULE: C[C@@H](Oc1cc(-c2cnn(C3CCNCC3)c2)cnc1N)c1c(Cl)ccc(F)c1Cl [Crizotinib] + Cn1cnc2c(F)c(Nc3ccc(Br)cc3Cl)c(C(=O)NOCCO)cc21 [Selumetinib] (first compound max 10 µM, 7x7, partner max 10 µM)
Bliss excess: -0.0103
//
MOLECULE: CS(=O)(=O)CCNCc1ccc(-c2ccc3ncnc(Nc4ccc(OCc5cccc(F)c5)c(Cl)c4)c3c2)o1 [Lapatinib] + C[C@@H](Oc1cc(-c2cnn(C3CCNCC3)c2)cnc1N)c1c(Cl)ccc(F)c1Cl [Crizotinib] (first compound max 10 µM, 7x7, partner max 10 µM)
Bliss excess: -0.0384
//
MOLECULE: C=CCn1c(=O)c2cnc(Nc3ccc(N4CCN(C)CC4)cc3)nc2n1-c1cccc(C(C)(C)O)n1 [AZD1775] + Nc1ccn([C@@H]2O[C@H](CO)[C@@H](O)C2(F)F)c(=O)n1 [Gemcitabine] (first compound max 1 µM, partner max 0.3 µM)
Bliss excess: 0.0711

---

# System: RERF-LC-KJ (Lung Adenocarcinoma)
# ASSAY_DETAILS: Bliss excess, mean over the matrix (fraction); higher = more synergy

COMPOUND: CN(CCO)CC[C@H](CSc1ccccc1)Nc1ccc(S(=O)(=O)NC(=O)c2ccc(N3CCC([C@@H](O)c4ccccc4-c4ccc(Cl)cc4)CC3)cc2)cc1S(=O)(=O)C(F)(F)F [AZD4320] + C=CCn1c(=O)c2cnc(Nc3ccc(N4CCN(C)CC4)cc3)nc2n1-c1cccc(C(C)(C)O)n1 [AZD1775] (first compound max 1 µM, partner max 1 µM)
Bliss excess: -0.0076
--
COMPOUND: Cc1c2c(nn1C)CSCc1cc(n(C)n1)CSc1cc(c3ccccc3c1)OCCCc1c(C(=O)O)n(C)c3c-2c(Cl)ccc13 [AZD5991] + C1CN(CCC1(C(=O)N[C@@H](CCO)C2=CC=C(C=C2)Cl)N)C3=NC=NC4=C3C=CN4 [Capivasertib] (first compound max 1 µM, 7x7, partner max 3 µM)
Bliss excess: -0.0112
--
COMPOUND: CN(CCO)CC[C@H](CSc1ccccc1)Nc1ccc(S(=O)(=O)NC(=O)c2ccc(N3CCC([C@@H](O)c4ccccc4-c4ccc(Cl)cc4)CC3)cc2)cc1S(=O)(=O)C(F)(F)F [AZD4320] + Cc1cc2ncnn2cc1Nc1ncc2c(n1)n(C1CCOCC1)c(=O)n2C [AZD7648] (first compound max 1 µM, 7x7, partner max 10 µM)
Bliss excess: -0.0314

---

Listed next: entries and their corresponding combination Emax.
# Tested on: NCI-H1563 (Lung Adenocarcinoma)
# ASSAY_DETAILS: combination Emax (second highest fraction inhibited in the dose matrix, 72 h); higher = more inhibition; extreme values may be limits of the assay

COMPOUND: COc1cc2c(cc1OCCCCCOc1cc3c(cc1OC)C(=O)N1C=C(C)C[C@H]1C=N3)N=C[C@@H]1CC(C)=CN1C2=O [SG3199] + O=C(c1cc(Cc2n[nH]c(=O)c3ccccc23)ccc1F)N1CCN(C(=O)C2CC2)CC1 [Olaparib] (first compound max 0.001 µM, 7x7, partner max 10 µM)
combination Emax: 0.173
//
COMPOUND: Cc1cc2ncnn2cc1Nc1ncc2c(n1)n(C1CCOCC1)c(=O)n2C [AZD7648] + CCN(CCO)CCCOc1ccc2c(Nc3cc(CC(=O)Nc4cccc(F)c4)[nH]n3)ncnc2c1 [AZD2811] (first compound max 10 µM, 7x7, partner max 1 µM)
combination Emax: 0.555
//
COMPOUND: Cn1cnc2c(F)c(Nc3ccc(Br)cc3Cl)c(C(=O)NOCCO)cc21 [Selumetinib] + C=CCn1c(=O)c2cnc(Nc3ccc(N4CCN(C)CC4)cc3)nc2n1-c1cccc(C(C)(C)O)n1 [AZD1775] (first compound max 10 µM, partner max 1 µM)
combination Emax: 0.303
//
COMPOUND: COc1cccc2c1C(=O)c1c(O)c3c(c(O)c1C2=O)C[C@@](O)(C(=O)CO)C[C@@H]3O[C@H]1C[C@H](N)[C@H](O)[C@H](C)O1 [Doxorubicin] + Cc1cc2ncnn2cc1Nc1ncc2c(n1)n(C1CCOCC1)c(=O)n2C [AZD7648] (first compound max 1 µM, 7x7, partner max 10 µM)
combination Emax: 0.58
//
COMPOUND: NC1(C(=O)N[C@@H](CCO)c2ccc(Cl)cc2)CCN(c2ncnc3[nH]ccc23)CC1 [Capivasertib] + Cn1cnc2c(F)c(Nc3ccc(Br)cc3Cl)c(C(=O)NOCCO)cc21 [Selumetinib] (first compound max 10 µM, 7x7, partner max 10 µM)
combination Emax: 0.4
//
COMPOUND: COc1nnc2ccc(N3CCC(c4ccc(OCCN5CCN(C)C(=O)[C@H]5C)cc4)CC3)nn12 [AZD5153] + C=CCn1c(=O)c2cnc(Nc3ccc(N4CCN(C)CC4)cc3)nc2n1-c1cccc(C(C)(C)O)n1 [AZD1775] (first compound max 1 µM, partner max 1 µM)
combination Emax: 0.564
//
COMPOUND: Cc1c2c(nn1C)CSCc1cc(n(C)n1)CSc1cc(c3ccccc3c1)OCCCc1c(C(=O)O)n(C)c3c-2c(Cl)ccc13 [AZD5991] + C1CN(CCC1(C(=O)N[C@@H](CCO)C2=CC=C(C=C2)Cl)N)C3=NC=NC4=C3C=CN4 [Capivasertib] (first compound max 1 µM, 7x7, partner max 3 µM)
combination Emax: 0.774
